Data origin: patent US7772241B2

Tested on: LoVo-Dox
Experiment: Inhibition of cells growth by colorimetric (SRB) assay, LoVo-Dox
Conditions: Homo sapiens, 48 h, read-out: LOVO-DOX GI50, SRB assay, 48 hours exposure
Protocol: The finality of these assays is to interrupt the growth of a “in vitro” tumor cell culture by means a continued exhibition of the cells to the sample to be testing. […] Cells are seeded in 96 well microtiter plates, at 5×10^3 cells per well in aliquots of 195 μl medium, and they are allowed to attach to the plate surface by growing in drug free medium for 18 hours. […] Optical densities are read on a automated spectrophotometric plate reader at a single wavelength of 490 nm. […]
Just a reminder that ties go to not fulfilled: only GI50 strictly below 1000 nM counts as fulfilled.

- Compound: "CSc1nccc(-c2c3cccnc3n3c(N)nccc23)n1.Cl [Compound 68]"
  Assigned category: "not fulfilled"
- Compound: "CSc1nccc(-c2c3cccnc3n3c(NC(C)=O)nccc23)n1 [Compound 69]"
  Assigned category: "not fulfilled"
- Compound: "Cl.Nc1nccc(-c2c3c(Cl)ccnc3n3c(N)nccc23)n1 [Compound 83]"
  Assigned category: "fulfilled"
- Compound: "CSc1nccc(-c2c3cc4ccccc4nc3n3c(N)nccc23)n1 [Compound 18a]"
  Assigned category: "not fulfilled"
- Compound: "CSc1nccc(-c2c3ccc(C)nc3n3c(N)nccc23)n1 [Compound 43]"
  Assigned category: "not fulfilled"
